Target: Estrogen receptor (Homo sapiens) (UniProt Q92731+P03372)
Test: Percent of covalently modified 16-mer (DNA adduct) in a slowly migrating complex with ER ligand binding domain (ER-LBD) in EMSA electrophoretic mobility shift assay
Format: functional
observation.type: Oligo shifted

>>> df
                           substance_smiles  value_measured
0  C[C@]12CC[C@@H]3c4ccc(O)cc4C[C@@H](CCCCCCNCCCCNCCCCc4ccc(N(CCCl)CCCl)cc4)[C@H]3[C@@H]1CC[C@@H]2O             38%
1  C[C@]12CC[C@@H]3c4ccc(O)cc4C[C@@H](CCCCCCNCCCCc4ccc(N(CCCl)CCCl)cc4)[C@H]3[C@@H]1CC[C@@H]2O             67%
2  C[C@]12CC[C@@H]3c4ccc(O)cc4C[C@@H](CCCCCC/N=C(/N)NCCCc4ccc(N(CCCl)CCCl)cc4)[C@H]3[C@@H]1CC[C@@H]2O             38%
3  C[C@]12CC[C@@H]3c4ccc(O)cc4C[C@@H](CCCCCCNCCOC(=O)NCCCc4ccc(N(CCCl)CCCl)cc4)[C@H]3[C@@H]1CC[C@@H]2O             93%
4  C[C@]12CC[C@@H]3c4ccc(O)cc4C[C@@H](CCCCCCNCC/N=C(/N)NCCCc4ccc(N(CCCl)CCCl)cc4)[C@H]3[C@@H]1CC[C@@H]2O             93%

---

Experiment: LogD at pH 7.4
Type: physicochemical
Conditions: buffer
observation.type: logD

>>> print(df.to_string())
                           substance_smiles  value_measured
0  C[C@]12CC[C@@H]3c4ccc(O)cc4C[C@@H](CCCCCCNCC/N=C(/N)NCCCc4ccc(N(CCCl)CCCl)cc4)[C@H]3[C@@H]1CC[C@@H]2O            3.12
1  C[C@]12CC[C@@H]3c4ccc(O)cc4C[C@@H](CCCCCCOC(=O)NCCCc4ccc(N(CCCl)CCCl)cc4)[C@H]3[C@@H]1CC[C@@H]2O            5.61
2  C[C@]12CC[C@@H]3c4ccc(O)cc4C[C@@H](CCCCCC/N=C(/N)NCCCc4ccc(N(CCCl)CCCl)cc4)[C@H]3[C@@H]1CC[C@@H]2O            2.52
3  C[C@]12CC[C@@H]3c4ccc(O)cc4C[C@@H](CCCCCCNC(=O)CCCNC(=O)CCCc4ccc(N(CCCl)CCCl)cc4)[C@H]3[C@@H]1CC[C@@H]2O            4.85
4  C[C@]12CC[C@@H]3c4ccc(O)cc4C[C@@H](CCCCCCNCCOC(=O)NCCCc4ccc(N(CCCl)CCCl)cc4)[C@H]3[C@@H]1CC[C@@H]2O            2.22
5  C[C@]12CC[C@@H]3c4ccc(O)cc4C[C@@H](CCCCCCNCCCCNCCCCc4ccc(N(CCCl)CCCl)cc4)[C@H]3[C@@H]1CC[C@@H]2O            2.22
6  C[C@]12CC[C@@H]3c4ccc(O)cc4C[C@@H](CCCCCCNC(=O)CCCc4ccc(N(CCCl)CCCl)cc4)[C@H]3[C@@H]1CC[C@@H]2O            5.07
7  C[C@]12CC[C@@H]3c4ccc(O)cc4C[C@@H](CCCCCCNCCCCc4ccc(N(CCCl)CCCl)cc4)[C@H]3[C@@H]1CC[C@@H]2O            2.87
